Each entry below lists one item and its recorded pKd value.
- Target or test system: T1, cynomolgus monkey Nectin-4 protein (cynomolgus monkey)
- T1 construct: also called cynomolgus monkey Nectin-4 antigen
- Procedure summary: BLI (Octet Fortebio), antibody on ProA sensor, Nectin-4 as analyte, 1:1 global fit
Units for pKd: none; it is -log10 of a concentration expressed in mol/L.

Known pKd results, listed for orientation:
[[record]]
binder = "Enfortumab (antibody, V domains shown) VH: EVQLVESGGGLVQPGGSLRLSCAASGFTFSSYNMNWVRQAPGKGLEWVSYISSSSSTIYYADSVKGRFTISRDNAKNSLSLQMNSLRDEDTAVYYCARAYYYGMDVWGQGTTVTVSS VL: DIQMTQSPSSVSASVGDRVTITCRASQGISGWLAWYQQKPGKAPKFLIYAASTLQSGVPSRFSGSGSGTDFTLTISSLQPEDFATYYCQQANSFPPTFGGGTKVEIKR"
measured_number = 7.47

[[record]]
binder = "anti-human Nectin-4 humanized monoclonal antibody 31HZ (antibody, human IgG1, kappa, V domains shown, Human IgG1 heavy chain constant region, human kappa light chain constant region; expressed in CHO-E cells) VH: QVQLVQSGAEVKKPGSSVKVSCKASGYTFTDYWMNWVRLAPGQGLEWIGMIHPSDSETRLNQKFQGRVTLTVDKSTSTAYMELSSLRSEDTAVYYCARWDFRIYYAMDYWGQGTLVTVSS VL: DVVITQSPDSLAVSLGERATINCKSSQSLLNTNSQKNYLAWYQQKPGQSPKLLVYFASTRESGVPDRFSGSGSGTDFTLTISSLQAEDVAVYFCQQHYSTPLTFGGGTKVEIKR"
measured_number = 7.84

[[record]]
binder = "anti-human Nectin-4 humanized monoclonal antibody 56HZ (antibody, human IgG1, kappa, V domains shown, Human IgG1 heavy chain constant region, human kappa light chain constant region; expressed in CHO-E cells) VH: QVQLQESGPGLVKPSQTLSLTCTVSGYFNSITSDYDWHWIRHHPGKGLEWMGYISFSGRTYYNPSLKSRVTISHDTSKNQFSLKLSSVTAADTAVYYCARGNYDGFDYWGQGTLVTVSS VL: DIVLTQSPATLSLSPGERATLSCRASQNIGTSIHWYQHKPGQSPRLLIKFASESISGIPARFSGSGSGTDFTLTISSLEPEDFAVYYCQQSKSWPTYTFGGGTKVEIKR"
measured_number = 7.74


Next binder, please.
Name the recorded pKd for anti-human Nectin-4 humanized monoclonal antibody 74HZ (antibody, human IgG1, kappa, V domains shown, Human IgG1 heavy chain constant region, human kappa light chain constant region; expressed in CHO-E cells) VH: QVQLVQSGAEVKKPGSSVKVSCKASGYTFINYWMNWVRQAPGQGLEWIGMIHPSDSATRLNQSFQGRVTLTVDKSTSTAYMELSSLRSEDTAVYYCARWGNFYTVNAWYYFDYWGQGTLVTVSS VL: DIVITQSPDSLAVSLGERATINCKSSQTLLNSNTQKNYLAWYQQKPGQSPKLLFYFASTRESGVPDRFSGSGSGTDFTLTISSLQAEDVAVYFCQQHYSTPLTFGQGTKLEIKR . 8.02

Data provenance: patent US20240228612A1
